Target Or System: T1, human collagen type I, acid soluble, extracted from placenta (Sigma C7774) (human, UniProt P02452 162-1218; P08123 80-1119)
T1 construct: tissue extract, gelled and dried in wells; also called dried human collagen; h-Collagen
T1 sequence (P02452 162-1218 limits assumed, chain 1 of 2): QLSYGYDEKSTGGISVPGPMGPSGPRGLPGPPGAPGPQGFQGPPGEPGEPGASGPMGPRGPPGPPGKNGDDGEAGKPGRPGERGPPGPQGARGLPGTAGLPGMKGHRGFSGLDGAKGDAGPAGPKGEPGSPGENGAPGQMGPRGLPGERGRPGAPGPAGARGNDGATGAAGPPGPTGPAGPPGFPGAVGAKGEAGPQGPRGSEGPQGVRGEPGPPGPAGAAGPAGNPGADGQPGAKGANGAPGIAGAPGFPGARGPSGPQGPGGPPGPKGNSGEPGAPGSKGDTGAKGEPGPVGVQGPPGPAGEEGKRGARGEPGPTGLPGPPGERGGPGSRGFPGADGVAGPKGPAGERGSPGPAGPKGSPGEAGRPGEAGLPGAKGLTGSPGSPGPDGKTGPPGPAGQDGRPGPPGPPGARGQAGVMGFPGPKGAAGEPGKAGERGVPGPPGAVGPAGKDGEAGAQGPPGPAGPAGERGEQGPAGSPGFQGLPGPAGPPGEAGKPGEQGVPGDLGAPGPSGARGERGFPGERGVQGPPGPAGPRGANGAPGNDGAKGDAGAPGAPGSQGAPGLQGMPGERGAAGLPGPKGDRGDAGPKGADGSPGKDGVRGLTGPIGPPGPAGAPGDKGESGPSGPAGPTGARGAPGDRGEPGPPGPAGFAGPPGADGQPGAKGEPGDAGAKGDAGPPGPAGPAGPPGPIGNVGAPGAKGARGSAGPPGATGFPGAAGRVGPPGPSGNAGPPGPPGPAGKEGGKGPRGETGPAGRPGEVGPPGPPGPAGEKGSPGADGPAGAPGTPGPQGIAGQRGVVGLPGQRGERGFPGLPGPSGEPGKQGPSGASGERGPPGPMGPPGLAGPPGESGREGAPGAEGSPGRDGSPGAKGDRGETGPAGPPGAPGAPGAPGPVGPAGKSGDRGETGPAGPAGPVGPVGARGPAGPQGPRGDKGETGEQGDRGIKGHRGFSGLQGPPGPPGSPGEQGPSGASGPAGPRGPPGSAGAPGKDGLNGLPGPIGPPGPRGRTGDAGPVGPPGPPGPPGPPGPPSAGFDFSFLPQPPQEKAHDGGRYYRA
T1 sequence (P08123 80-1119 limits assumed, chain 2 of 2): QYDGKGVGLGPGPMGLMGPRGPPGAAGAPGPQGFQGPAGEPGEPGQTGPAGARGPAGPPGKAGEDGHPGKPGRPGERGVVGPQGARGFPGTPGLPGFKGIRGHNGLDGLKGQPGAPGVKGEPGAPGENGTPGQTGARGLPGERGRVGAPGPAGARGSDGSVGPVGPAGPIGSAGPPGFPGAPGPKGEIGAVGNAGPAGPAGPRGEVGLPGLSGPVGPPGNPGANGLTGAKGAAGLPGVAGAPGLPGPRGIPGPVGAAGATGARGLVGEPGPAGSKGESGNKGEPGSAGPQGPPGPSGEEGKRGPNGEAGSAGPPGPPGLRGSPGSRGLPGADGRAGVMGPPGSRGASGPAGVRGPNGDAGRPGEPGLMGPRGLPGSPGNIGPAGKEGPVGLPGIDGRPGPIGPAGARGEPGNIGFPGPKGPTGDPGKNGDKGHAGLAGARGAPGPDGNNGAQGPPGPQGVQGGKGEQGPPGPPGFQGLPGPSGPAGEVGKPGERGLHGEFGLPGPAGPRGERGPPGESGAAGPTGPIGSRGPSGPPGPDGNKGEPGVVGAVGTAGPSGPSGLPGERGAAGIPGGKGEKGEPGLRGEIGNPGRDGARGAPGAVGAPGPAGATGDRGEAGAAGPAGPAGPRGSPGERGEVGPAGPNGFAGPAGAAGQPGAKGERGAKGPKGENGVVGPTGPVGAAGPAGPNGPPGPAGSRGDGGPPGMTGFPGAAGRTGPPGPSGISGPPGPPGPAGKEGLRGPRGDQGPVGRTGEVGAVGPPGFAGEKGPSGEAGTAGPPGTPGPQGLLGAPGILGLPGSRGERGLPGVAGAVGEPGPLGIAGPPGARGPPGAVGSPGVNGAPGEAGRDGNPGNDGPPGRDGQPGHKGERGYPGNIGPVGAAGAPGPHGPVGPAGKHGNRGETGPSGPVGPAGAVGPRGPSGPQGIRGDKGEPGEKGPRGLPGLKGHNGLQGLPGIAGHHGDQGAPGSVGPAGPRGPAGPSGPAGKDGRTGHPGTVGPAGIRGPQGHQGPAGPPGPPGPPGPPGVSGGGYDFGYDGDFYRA
Method Notes: dried collagen assay
Bridge positions count the residues as written; N and C are the ends. Square brackets hold non-standard residues; d marks the D form. Primed or numbered codes have the meaning given here. Side chains are listed from the residue outwards. Ends that are not written are not given here. Bpa = N[C@@H](Cc1ccc(C(=O)c2ccccc2)cc1)C(=O)O; Gd^D = GdDOTAGA (gadolinium DOTAGA chelate); Tyr(3-I) = N[C@@H](Cc1ccc(O)c(I)c1)C(=O)O; Phe(4-NH2) = Nc1ccc(C[C@H](N)C(=O)O)cc1; K(Gd^T)Gd^T = not defined here; Gd^T = not defined here; Gd^T″ = GdDTPA-thiourea; Dap = NC[C@H](N)C(=O)O
Measurement Name: % bound (%)
Give your result in % as a bare value.

(Q) Entry {Gd^T″}-[Dap](Gd^T″)[Dap]([Dap-Gd^T″-Gd^T″])WHCYTYFPHHYCVYG (disulfide 5-14; also: X2: inner Dap bears two Gd^T) [Compound ID 1002] has what % bound?
(A) 44

(Q) Same thing, different binder: {Gd^T″}-GQWHCYTK(Gd^T″)FPHHYCLYGK(Gd^T″) (disulfide 5-14 (inferred); not fully specified (C-terminus)) [Compound ID 993]
(A) 75

(Q) Same thing, different binder: GQWHCTTYFPHHYCLYG (disulfide 5-14 (inferred); not fully specified (N-terminus)) [Compound ID 919]
(A) 93

(Q) Same thing, different binder: {Gd^T}-GQWHCTTYFPHHYCLYG (disulfide 5-14 (inferred); not fully specified (C-terminus); reading uncertain) [Compound ID 861]
(A) 73

(Q) Same thing, different binder: {Gd^T″}-GK([Gly-Gd^T″])WHC[Tyr(3-I)]TYFPHHYCLYG (disulfide 5-14 (inferred); not fully specified (C-terminus)) [Compound ID 973]
(A) 85

(Q) Same thing, different binder: {Gd^T}-GAWHCTTRFPHHYCLYG (disulfide 5-14 (inferred); not fully specified (C-terminus); reading uncertain) [Compound ID 857]
(A) 67

(Q) Same thing, different binder: {Gd^T″}-GK([Gly-Gd^T″])WHCTTYFPHH[Phe(4-NH2)]CLYG (disulfide 5-14 (inferred); not fully specified (C-terminus)) [Compound ID 972]
(A) 3

(Q) Same thing, different binder: {Gd^T″}-GSWHCTTLFPHH[dY]CLYG (disulfide 5-14 (inferred); not fully specified (C-terminus)) [Compound ID 911]
(A) 15

(Q) Same thing, different binder: {Gd^T″}-AWHCTTRFPAHYCLYG (disulfide 4-13 (inferred)) [Compound ID 937]
(A) 11

(Q) Same thing, different binder: {Gd^T″}-GK([Gly-Gd^T″])WHCYK(Gd^T″)YFPHHYCLYG (disulfide 5-14 (inferred); not fully specified (C-terminus)) [Compound ID 991]
(A) 23

(Q) Same thing, different binder: {Gd^T″}-GQWHCTTDFPHHYCL[Bpa]G (disulfide 5-14) [Compound ID 889]
(A) 38

(Q) Same thing, different binder: {Gd^T″}-GQWHCTTLFPHHYCVYG (disulfide 5-14 (inferred)) [Compound ID 928]
(A) 73

(Q) Same thing, different binder: {Gd^T″}-GAWHCTTLFPHH[dY]CLYG (disulfide 5-14 (inferred); not fully specified (C-terminus)) [Compound ID 908]
(A) 20

(Q) Same thing, different binder: {Gd^T″}-PPWHCTTLFPHH[dY]CLYG (disulfide 5-14 (inferred); not fully specified (C-terminus)) [Compound ID 912]
(A) 20

(Q) Same thing, different binder: {Gd^T″}-GK([Gly-Gd^T″])WHCYTYFPHHYCLYFK(Gd^T″) (disulfide 5-14 (inferred); not fully specified (C-terminus)) [Compound ID 985]
(A) 56

(Q) Same thing, different binder: {Gd^T″}-GK([Gly-Gd^T″])WHCTTK(Gd^T″)FPHHYCLYY (disulfide 5-14 (inferred); not fully specified (C-terminus)) [Compound ID 980]
(A) 85

(Q) Same thing, different binder: {Gd^D}-K(Gd^D)K(Gd^D)GWHCYTYFPHHYCTYG (disulfide 6-15 (inferred)) [Compound ID 1015]
(A) 29

(Q) Same thing, different binder: {Gd^T″}-K(Gd^T″)K(K(Gd^T)Gd^T)GQWHCTTYFPHHYCLYG (disulfide 7-16 (inferred); reading uncertain) [Compound ID 960]
(A) 30
